# target entity: HIV-1 Env of strain CAP210.2.00.E8 (HIV-1)

binder	In vitro neutralization IC50
3BNC55 IgG (wild type) (antibody, V domains shown) VH: QVQLVQSGTAVKRPGASVRVSCQASGYTFTDYFIYWWRQAPGQGLEWLGWINPLTSQPSYPSRFQGRLTLTRDTFDEMLYMDLRGLRSDDTGIYFCARRHSDYCDFDIWGSGTQIIVSS VL: DIQMTQSPSSLSASVGDKVTITCQTSAGYLNWYQQRRGRAPKLLMYDGSRLVTGVPSRFSGRRWGTQYNLTIGSLQPEDIATYYCQVYEFFGPGTRLDLKS	> 50 µg/mL
